- Assay target: PDE4D (Homo sapiens, UniProt Q08499)
- Sequence (Q08499 whole entry, canonical isoform): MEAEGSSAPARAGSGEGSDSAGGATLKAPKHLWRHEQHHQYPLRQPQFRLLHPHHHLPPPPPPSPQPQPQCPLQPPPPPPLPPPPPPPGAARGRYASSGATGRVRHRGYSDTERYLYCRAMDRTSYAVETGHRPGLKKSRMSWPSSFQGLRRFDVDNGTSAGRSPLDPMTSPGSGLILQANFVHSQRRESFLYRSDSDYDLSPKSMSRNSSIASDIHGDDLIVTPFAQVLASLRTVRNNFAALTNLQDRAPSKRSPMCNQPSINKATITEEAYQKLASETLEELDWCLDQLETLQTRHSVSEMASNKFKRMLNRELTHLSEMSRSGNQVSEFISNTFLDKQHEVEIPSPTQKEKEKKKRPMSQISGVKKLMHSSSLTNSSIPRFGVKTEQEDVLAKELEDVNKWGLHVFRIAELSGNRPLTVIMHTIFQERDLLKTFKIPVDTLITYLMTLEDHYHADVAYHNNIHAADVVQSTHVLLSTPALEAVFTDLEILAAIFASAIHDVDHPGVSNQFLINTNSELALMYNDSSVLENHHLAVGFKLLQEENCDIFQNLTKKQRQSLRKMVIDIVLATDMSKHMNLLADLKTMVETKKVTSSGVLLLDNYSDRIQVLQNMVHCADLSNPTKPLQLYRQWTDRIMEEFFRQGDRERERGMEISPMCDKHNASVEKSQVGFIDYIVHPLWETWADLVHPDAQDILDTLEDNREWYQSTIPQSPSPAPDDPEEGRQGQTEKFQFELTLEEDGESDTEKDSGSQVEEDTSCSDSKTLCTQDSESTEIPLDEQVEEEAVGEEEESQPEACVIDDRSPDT
- Procedure summary: IC50 determination on PDE4 isoforms in vitro
- Details: read-out: IC50 on PDE4D

| Smiles representation | IC50, nM |
| --- | --- |
| O=C(c1cc2cccnc2n1-c1ccc(Cl)c(Cl)c1)N1CC(F)(F)C1 | 880 |
